method description: amyloid nucleation score (Sup35N fusion, yeast selection) (log enrichment); library NNK2; higher = more nucleation; inactive = no reads after selection;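 further: zero at mode of non-aggregating sequences after 7 days selection at 30°C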
Class 1 (yes): amyloid nucleation score at least 0.1. Class 0 (no): amyloid nucleation score below 0.1.

Check this sequence for amyloid nucleation score at or above 0.1: VSKSFFIVIV
1 (yes)

Check this sequence for amyloid nucleation score at or above 0.1: ILKSRSLVRFHFFSIGASCA
1 (yes)

Check this sequence for amyloid nucleation score at or above 0.1: VLMEWTLGVTHDNISDDYSD
1 (yes)

Check this sequence for amyloid nucleation score at or above 0.1: FVGDTIQVVIWLMIIYFWFF
1 (yes)

Check this sequence for amyloid nucleation score at or above 0.1: DWQRRFAQIMIRGFNVILVT
0 (no)

Check this sequence for amyloid nucleation score at or above 0.1: SRFLLKDKSNTSGVMQLGMW
0 (no)

Check this sequence for amyloid nucleation score at or above 0.1: SYSSPHRINGCVIRP
0 (no)

Check this sequence for amyloid nucleation score at or above 0.1: GFVPGIMEF
1 (yes)

Check this sequence for amyloid nucleation score at or above 0.1: GDMLILSENDQRYCGPVDL
1 (yes)

Check this sequence for amyloid nucleation score at or above 0.1: DMWQGEFKLGPRFSDENSQF
0 (no)

Check this sequence for amyloid nucleation score at or above 0.1: GRCTRERW
1 (yes)

Check this sequence for amyloid nucleation score at or above 0.1: IVLQRVGCFKDAGGNRVWEM
1 (yes)

Check this sequence for amyloid nucleation score at or above 0.1: MFCGDSCSTVPCCVCICFLY
1 (yes)

Check this sequence for amyloid nucleation score at or above 0.1: LTRLFYPWK
0 (no)

Check this sequence for amyloid nucleation score at or above 0.1: GGLCYEQNFYRYKKRRVLEL
1 (yes)

---

method description: amyloid nucleation score (Sup35N fusion, yeast selection) (log enrichment); library NNK2; higher = more nucleation; inactive = no reads after selection
quantity measured: amyloid nucleation score
Format: numeric value only, no unit, no commentary.

Short answer for AIIPRMLKYRERGKPTKRDT : amyloid nucleation score was 0.291

Short answer for MYSISVNMKNSFRNL : amyloid nucleation score was 0.566

Short answer for YMCRYGFMDNFCAVHVSFVE : amyloid nucleation score was 5.64

Short answer for VYNTFLREFHS : amyloid nucleation score was 1.99

Short answer for NETLSTCCLYHFKG : amyloid nucleation score was 4.04

Short answer for QGTQWFLLKVSAIVKQLRWT : amyloid nucleation score was -0.317

Short answer for YEYVCVLAVACITGRFTLHW : amyloid nucleation score was -0.757

Short answer for FKKAMHKPKSWAFSEKGRTN : amyloid nucleation score was -1.27

Short answer for VEMKGRWLIVNRRLGVSPQA : amyloid nucleation score was 0.097

Short answer for GLWLGWNLYVNKFV : amyloid nucleation score was 0.385

Short answer for VNMLTGLSKDK : amyloid nucleation score was -0.142

Short answer for QILPWGVSMEKL : amyloid nucleation score was -0.492

Short answer for NSICSNLDDSCEAKRTSRFH : amyloid nucleation score was -0.113

Short answer for GTYFNLYAGVLSVRQWPPHI : amyloid nucleation score was 4.42

Short answer for VSQVMLSK : amyloid nucleation score was 0.626

Short answer for SWHQKSELKTCWSLAIQYHT : amyloid nucleation score was -0.191

Short answer for VHVVSRAQTCEFF : amyloid nucleation score was 0.956
